# experiment-summary: TD-6450 phase I clinical study (SAD/MAD): pharmacokinetics
# Type: in vivo, human
# experimental-conditions: male, human, plasma, oral, 30 mg, Male subjects, SAD arm NCT02022306, Dose 30.00, 96 Hours; read-out: Concentration (ng/ml)
parameter-measured: concentration at 96 h (ng/mL)
Give just the number in ng/mL; leave the unit off.

Per the record, CNC(=O)N1C[C@@H](C)N(c2ccc(C(=O)Nc3ccc(-c4ccc(-c5c[nH]c([C@@H]6CCCN6C(=O)[C@@H](NC(=O)OC)C(C)C)n5)cc4)c(OC(F)(F)F)c3)cn2)C[C@@H]1C [TD-6450] has concentration at 96 h of 4.83

----------
# experiment-summary: TD-6450 phase I clinical study (SAD/MAD): pharmacokinetics
# Type: in vivo, human
# experimental-conditions: male, human, in vivo, TD-6450 concentration
parameter-measured: concentration at 2 h (µg/mL)
Give just the number in µg/mL; leave the unit off.

Per the record, `CNC(=O)N1C[C@@H](C)N(c2ccc(C(=O)Nc3ccc(-c4ccc(-c5c[nH]c([C@@H]6CCCN6C(=O)[C@@H](NC(=O)OC)C(C)C)n5)cc4)c(OC(F)(F)F)c3)cn2)C[C@@H]1C` has concentration at 2 h of 0.116

----------
# experiment-summary: TD-6450 phase I clinical study (SAD/MAD): pharmacokinetics
# Type: in vivo, human
# experimental-conditions: both sexes, human, plasma, oral, 60 mg, MAD 60 mg, day 14; read-out: t1/2 Mean ± SD, D14 (converted)
parameter-measured: half-life at 14 day

Per the record, CNC(=O)N1C[C@@H](C)N(c2ccc(C(=O)Nc3ccc(-c4ccc(-c5c[nH]c([C@@H]6CCCN6C(=O)[C@@H](NC(=O)OC)C(C)C)n5)cc4)c(OC(F)(F)F)c3)cn2)C[C@@H]1C [TD-6450] has half-life at 14 day of 62.3 h

----------
# Test system: female gametocytes
# experiment-summary: 384-well microsphiltration readout 2 (anti-pfs25): retention of female gametocytes
# Assay type: cell-based
# experimental-conditions: Plasmodium falciparum, read-out: IC50 during the screening campaign, only females stained
parameter-measured: pIC50
Please report pIC50 as the negative decimal logarithm of the molar concentration, giving only the number.

Per the record, CNC(=O)N1C[C@@H](C)N(c2ccc(C(=O)Nc3ccc(-c4ccc(-c5c[nH]c([C@@H]6CCCN6C(=O)[C@@H](NC(=O)OC)C(C)C)n5)cc4)c(OC(F)(F)F)c3)cn2)C[C@@H]1C [TD-6450] has pIC50 of 5.69

----------
# experiment-summary: TD-6450 phase I clinical study (SAD/MAD): pharmacokinetics
# Format: in vivo, human
# experimental-conditions: male, human, plasma, oral, 30 mg, Male subjects, SAD arm NCT02022306, Dose 30.00, 48 Hours; read-out: Concentration
parameter-measured: concentration at 48 h
Express the reported value numerically, then name its unit.

Per the record, CNC(=O)N1C[C@@H](C)N(c2ccc(C(=O)Nc3ccc(-c4ccc(-c5c[nH]c([C@@H]6CCCN6C(=O)[C@@H](NC(=O)OC)C(C)C)n5)cc4)c(OC(F)(F)F)c3)cn2)C[C@@H]1C [TD-6450] has concentration at 48 h of 9.12 ng/mL

----------
The following molecules are listed with their measured pIC50 values.
# Test system: mature stage V gametocytes (NF54 strain)
# experiment-summary: High-throughput screening: killing effect by MitoTracker staining, primary screening at 1.11 µM and dose-response analysis
# Format: cell-based, Plasmodium falciparum
# experimental-conditions: Plasmodium falciparum, NF54, 24 h, stage V gametocytes NF54, 24 h, dose-response analysis; N/A = not active in dose-response analysis; read-out: Killing IC50
# Description: Screening was conducted as previously described. Briefly, mature stage V gametocytes (NF54 strain) were cultured in vitro, then exposed to the explored compounds and filtered thereafter through layers of microspheres (microsphiltration)[25],[28]. Stiffening activity was determined by comparing gametocytemia up and downstream from the microsphere layers after filtration of drug-exposed gametocytes in 384-well plates using a vacuum manifold. […] Killing effect was assessed by MitoTracker staining. […]
Counter-ions that a name gives are not always drawn.
Please report pIC50 as the negative decimal logarithm of the molar concentration, giving only the number.

Some molecules with known pIC50 results, for comparison:
molecule	result-number
Cc1nc2c(s1)C(O)=C/C(=N\CCN(C)C)C2=O	5.55
CN(C)c1ccc2nc3ccc(=[N+](C)C)cc-3sc2c1 [Methylthioninium chloride]	5.31
CCCCC(CC)CNC(=N)NC(=N)NCCCCCCNC(=N)NC(=N)NCC(CC)CCCC (centres unmarked) [Alexidine dihydrochloride]	4.39
Cn1cc(CNCC2CCN(c3ncc(C(=O)NO)cn3)CC2)c2ccccc21	5.28

pIC50 of `CNCc1ccc(-c2cc(-c3nc(-c4ccc(S(=O)(=O)C(C)C)cc4)cnc3N)on2)cc1` , assay on mature stage V gametocytes (NF54 strain), is 6.15

pIC50 of Cl[TeH]1(Cl)(Cl)OCCO1 [Ammonium trichlorotellurate] , assay on mature stage V gametocytes (NF54 strain), is 4.86

pIC50 of `CN(C)Cc1c(C(=O)NCCOc2ccc(C(=O)NO)cc2)oc2ccccc12` , assay on mature stage V gametocytes (NF54 strain), is 5.70

pIC50 of `COc1ccc(-c2ccc3ncc4c(c3c2)n(-c2ccc(N3CCNCC3)c(C(F)(F)F)c2)c(=O)n4C)cn1` , assay on mature stage V gametocytes (NF54 strain), is 7.89

----------
# experiment-summary: TD-6450 phase I clinical study (SAD/MAD): pharmacokinetics
# Assay type: in vivo, human
# experimental-conditions: both sexes, human, plasma, oral, 60 mg, MAD 60 mg, day 14; read-out: Cmax Mean ± SD, D14
# Method: Primary and secondary outcomes were pre-defined as follows: Safety and tolerability as a primary outcome, pharmacokinetics as a secondary outcome. Safety and tolerability were evaluated using standard measures, including adverse event (AE) monitoring, clinical laboratory tests (hematology, serum chemistry, coagulation, and urinalysis), vital signs, physical examinations, and 12-lead electrocardiograms (ECGs). […] This study was conducted in two parts, Part A (SAD) and Part B (MAD). […]
parameter-measured: Cmax at 14 day (nM)
Give just the number in nM; leave the unit off.

Per the record, CNC(=O)N1C[C@@H](C)N(c2ccc(C(=O)Nc3ccc(-c4ccc(-c5c[nH]c([C@@H]6CCCN6C(=O)[C@@H](NC(=O)OC)C(C)C)n5)cc4)c(OC(F)(F)F)c3)cn2)C[C@@H]1C [TD-6450] has Cmax at 14 day of 398

----------
# Test system: F32-TEM P. falciparum strain
# experiment-summary: Resistance selection by TD-6450 drug pulses, dose-response on F32-TEM
# Assay type: cell-based, Plasmodium falciparum
# experimental-conditions: Plasmodium falciparum, F32, read-out: IC50, F32-TEM P.S.
parameter-measured: IC50 (nM)
Give just the number in nM; leave the unit off.

IC50 of CNC(=O)N1C[C@@H](C)N(c2ccc(C(=O)Nc3ccc(-c4ccc(-c5c[nH]c([C@@H]6CCCN6C(=O)[C@@H](NC(=O)OC)C(C)C)n5)cc4)c(OC(F)(F)F)c3)cn2)C[C@@H]1C [TD-6450] , assay on F32-TEM P. falciparum strain, is 200

----------
# experiment-summary: TD-6450 phase I clinical study (SAD/MAD): pharmacokinetics
# Type: in vivo, human
# experimental-conditions: both sexes, human, plasma, oral, 15 mg, SAD 15 mg; read-out: t1/2 Mean ± SD (converted)
parameter-measured: half-life

Per the record, `CNC(=O)N1C[C@@H](C)N(c2ccc(C(=O)Nc3ccc(-c4ccc(-c5c[nH]c([C@@H]6CCCN6C(=O)[C@@H](NC(=O)OC)C(C)C)n5)cc4)c(OC(F)(F)F)c3)cn2)C[C@@H]1C` has half-life of 77 h

----------
# experiment-summary: TD-6450 phase I clinical study (SAD/MAD): pharmacokinetics
# Assay type: in vivo, human
# experimental-conditions: both sexes, human, plasma, oral, 5 mg, SAD 5 mg; read-out: t1/2 Mean ± SD (converted)
parameter-measured: half-life (h)
Give just the number in h; leave the unit off.

Per the record, CNC(=O)N1C[C@@H](C)N(c2ccc(C(=O)Nc3ccc(-c4ccc(-c5c[nH]c([C@@H]6CCCN6C(=O)[C@@H](NC(=O)OC)C(C)C)n5)cc4)c(OC(F)(F)F)c3)cn2)C[C@@H]1C [TD-6450] has half-life of 71.7

----------
# experiment-summary: TD-6450 phase I clinical study (SAD/MAD): pharmacokinetics
# Format: in vivo, human
# experimental-conditions: female, human, plasma, oral, 0.5 mg, Female subjects, SAD arm NCT02022306, Dose 0.50, 12 Hours; read-out: Concentration
parameter-measured: concentration at 12 h (ng/mL)
Give just the number in ng/mL; leave the unit off.

Per the record, CNC(=O)N1C[C@@H](C)N(c2ccc(C(=O)Nc3ccc(-c4ccc(-c5c[nH]c([C@@H]6CCCN6C(=O)[C@@H](NC(=O)OC)C(C)C)n5)cc4)c(OC(F)(F)F)c3)cn2)C[C@@H]1C [TD-6450] has concentration at 12 h of 0
